Would you mind telling me the reported growth of each entry?
System: A549/ATCC NSCLC
ASSAY_NOTES: NCI-60 one-dose screen, 48 h (100 = growth as untreated, 0 = no growth, -100 = all killed)
EXPERIMENTAL_PARAMETERS: 10 µM unless noted
Compounds without any hit were thinned out: in the full panel of roughly 83,000, 20% have a hit.
Numeric only. Scale: %

Task: Given O=C(O)c1ccc(-n2c(=O)c3ccccc3c3ccccc3c2=O)cc1 , respond with its growth.
Result: 106

Task: Note down growth recorded for C=C1C(=O)O[C@H]2[C@H]1CC/C(COC(=O)NCc1cc(OC)cc(OC)c1)=C\CC[C@@]1(C)O[C@@H]21
Result: 51.2

Task: Fill in growth for record COc1cc(Cn2c(-c3nonc3N)nc3ccccc32)ccc1C
Result: 24.2

Task: Please supply the value of reported growth for the item C=CCn1c(C)nc2ccc(Nc3nc(Nc4ccc(F)cc4)nc4ccccc34)cc21
Result: 52.1

###

System: NCI/ADR-RES ovarian
ASSAY_NOTES: NCI-60 one-dose screen, 48 h (100 = growth as untreated, 0 = no growth, -100 = all killed)
EXPERIMENTAL_PARAMETERS: 10 µM unless noted
This is part of a sample that, as a whole, favours compounds with a hit. Of some 83,000 tested, about 20% had one in any assay.
VALUE_KIND: growth (%)
Write it as a number; the unit % goes unstated.

Task: Write down measured growth (NCI/ADR-RES ovarian) for this compound. O=C1c2ccccc2C(=O)c2c1oc1oc3c(c(=O)c21)c(=O)n(-c1ccccc1)c1ccccc31
Result: 90.3

Task: Answer with growth of C#CCN1C(=O)/C(=c2\sc3n(c2=O)C2C(NN=3)N(CC)C(=O)N2CC)c2ccccc21 (stereo not drawn) measured for NCI/ADR-RES ovarian.
Result: -4.94

Task: For NCI/ADR-RES ovarian, give the measured growth of the entry O=C(CN1CCN(c2cc3c(cc2F)c(=O)c(C(=O)O)cn3C2CC2)CC1)Nc1ccc(C(=O)/C=C/c2ccc(Cl)cc2)cc1
Result: 111

###

System: HCT-15 colon
ASSAY_NOTES: NCI-60 one-dose screen, 48 h
EXPERIMENTAL_PARAMETERS: 10 µM unless noted
Compounds without any hit were thinned out: in the full panel of roughly 83,000, 20% have a hit. Activity calls are given as the source filed them. Rule for the calls: active = growth percent below 10; inactive = the rest.
Choose one outcome from this list and give only that: active, inactive

Task: Would you mind telling me which call this test gave c1ccc(CCn2nnc3c(Nc4ccc(N5CCOCC5)cc4)ncnc32)cc1 ?
Result: inactive

Task: Assay outcome for CCCCCc1c(C)[nH]c(/C=c2\[nH]/c(=C3/C=c4ccccc4=N3)cc2OC)c1C : what was it?
Result: active

Task: Could you check what this test reported for COc1ccc(C(=O)N2CCN(C(=O)c3cc(OC)c(OC)c(OC)c3)CC2)cc1OCCCCOc1cc2c(cc1OC)C(=O)N1CCC[C@H]1C=N2 ?
Result: inactive

Task: Assay result, entry O=C(O)C(Cc1ccccc1)N1C(=O)/C(=C/C(Cl)=C/c2ccc([N+](=O)[O-])cc2)SC1=S (configuration not stated) — outcome?
Result: inactive

Task: Fill in: this test's call for O=S=Nc1ccc([N+](=O)[O-])cc1 is ___
Result: inactive

Task: Hello, I am checking results. What call was entered for O=c1c2cccc3c(Nc4ccc(F)cc4)ccc(c32)c2nc3ccccc3n12 ?
Result: inactive

Task: Record lookup: outcome of this test for COc1cccc(C2CC(=O)Nc3c2c(C)nn3-c2nc3ccccc3[nH]2)c1OC (configuration not stated) ?
Result: inactive

Task: Recorded call for O=C(CCCn1c2c(sc3ccccc32)c(=O)n2nnc(-c3ccccc3)c12)NCCc1cnc[nH]1 ?
Result: active

Task: What was the test verdict on CCCCOc1nc2c(C)cccc2cc1C1CNC(=O)c2ccccc2N1 (configuration not stated) ?
Result: inactive

Task: Please state the recorded outcome for this compound: Cc1cc(C)c(NC(=O)c2sc3nc4c(cc3c2N)CN(Cc2ccccc2)CC4)c(C)c1
Result: inactive

Task: I would be grateful if you could indicate the recorded call for COc1cc(-c2csc(NC(=O)Nc3ccc(Cl)cc3Cl)n2)cc(OC)c1OC .
Result: inactive

Task: In this assay, the call recorded for Cc1nc2sccn2c1-c1csc(Nc2ccccc2Cl)n1 was what?
Result: inactive

Task: Tell me the recorded outcome of this test for CC[C@]1(O)C[C@@H]2CN(Cc3c([nH]c4ccccc34)[C@@](C(=O)OC)(c3cc4c(cc3OC)N(C)[C@H]3[C@@](O)(C(=O)OC)[C@H](OC(C)=O)[C@]5(CC)[C@@H]6C[C@@H]6CN6CC[C@]43[C@@H]65)C2)C1 .
Result: inactive

Task: Per the assay record, what outcome was assigned to c1ccc2c(c1)Oc1ccccc1C2C1c2ccccc2Oc2ccccc21 ?
Result: inactive

Task: Hi, sorry to bother you, what did the test record for O=[N+]([O-])c1ccc(S(=O)(=O)N2CCN(c3ccnc4cc(Cl)ccc34)CC2)c([N+](=O)[O-])c1 ?
Result: inactive

Task: Look up the recorded call for C[N+](C)(C)c1ccc(CC2c3ccccc3-c3ccccc32)cc1 in this test.
Result: inactive

Task: Per the assay record, what outcome was assigned to COc1ccc(OC)c(C(=O)c2oc3ccc(Br)cc3c2N)c1 ?
Result: inactive

Task: Dear colleague, could you share the recorded outcome for O=C(c1ccncc1)N1N=C(c2ccc(Cl)cc2)CC1c1c[nH]c2ccccc12 (configuration not stated) when you have a moment?
Result: inactive

Task: Called result for CCCCCCc1nc2c(c(C)nn2-c2ccccc2)c2c1CCCCC2
Result: inactive

Task: Assay outcome for Cc1ccc(Cn2c(-c3cccs3)nc3ccccc32)cc1 : what was it?
Result: inactive

Task: What is the recorded call for this compound in the test? C=C1C(=O)O[C@H]2[C@H]1CC/C(COC(=O)NCCc1ccc(OC)cc1)=C\CC[C@@]1(C)O[C@@H]21
Result: active

Task: In this assay, the call recorded for COc1ccc(/C=C/C(=O)/C=C/c2cc3ccc(Cl)cc3[nH]c2=O)cc1 was what?
Result: inactive

###

Test system: A549/ATCC NSCLC
ASSAY_NOTES: NCI-60 one-dose screen, 48 h (100 = growth as untreated, 0 = no growth, -100 = all killed)
EXPERIMENTAL_PARAMETERS: 10 µM unless noted
Compounds without any hit were thinned out: in the full panel of roughly 83,000, 20% have a hit.
VALUE_KIND: growth (%)
Please respond with the number in % and leave the unit unwritten.

Task: Please indicate growth recorded for COc1cccc(/C=C/C(=O)c2sc(Nc3ccc(O)cc3)nc2C)c1
Result: 88.2

Task: Assign growth to the following record: COc1ccc(N=C2NN=C(c3ccc(F)cc3)CS2)cc1OC
Result: 92.4

Task: Respond only with growth recorded for CC1=NN2C(=NC3=C(CCC/C3=C\c3ccc(Cl)cc3)C2c2ccc(Cl)cc2)S1 (stereo not drawn)
Result: 87

Task: Hello, please tell me recorded growth for this one: O=[N+]([O-])c1cccc(-c2cc(-c3cc(Br)ccc3O)[nH]n2)c1
Result: 21.7

Task: Hello, please tell me recorded growth for this one: O=C(Nc1ccc(F)c(Cl)c1)c1n[nH]c(=O)c2ccccc12
Result: 91.8

Task: Identify measured growth corresponding to CC[C@H](C)[C@H]1NC(=O)[C@@H](N[C@](C)(O)[C@@H](N)CC(C)C)[C@@H](C)OC(=O)[C@H](Cc2ccc(OC)cc2)N(C)C(=O)[C@@H]2CCCN2C(=O)[C@H](CC(C)C)NC(=O)[C@@H](C)C(=O)[C@H](C(C)C)OC(=O)C[C@@H]1O
Result: -22.7

Task: Given CCN1C(=O)/C(=c2\sc3n(c2=O)C2C(NN=3)N(CC)C(=S)N2CC)c2ccccc21 (stereo not drawn) , respond with its growth.
Result: 106

Task: Fill in reported growth for this entry: COc1ccc(NC(=O)/N=c2\oc3c(OC)cccc3cc2-c2cc3ccccc3[nH]2)cc1
Result: 55.7

###

Test system: MALME-3M melanoma
ASSAY_NOTES: NCI-60 one-dose screen, 48 h (100 = growth as untreated, 0 = no growth, -100 = all killed)
EXPERIMENTAL_PARAMETERS: 10 µM unless noted
The panel holds about 83,000 compounds, 20% with a hit somewhere; the sample as a whole holds those more often.
VALUE_KIND: growth (%)
Kindly provide the numeric value in % only, without the unit symbol.

Task: # return recorded growth for input CC(C)CCC[C@@H](C)[C@H]1CC[C@H]2[C@@H]3CC[C@H]4C/C(=N/O)CC[C@]4(C)[C@H]3CC[C@]12C
Result: 104

Task: Item CC(C(=O)n1cc(-c2ccccc2)c(-c2ccccc2)c1)c1ccccc1 (configuration not stated) : provide growth
Result: 108

Task: Give recorded growth. Cc1cccc(NC(=O)c2sc3nc4c(cc3c2N)CCCC4)c1
Result: 24.9

Task: Using the record for CCC1CCc2nc3sc(C(=O)Nc4ccccc4C)c(N)c3cc2C1 (configuration not stated) , state its measured growth.
Result: 28.3

Task: Kindly indicate its recorded growth. Item: COc1ccc(/C=C(\C#N)c2ccc([N+](=O)[O-])cc2)c2ccccc12
Result: 14.6

Task: Respond only with growth recorded for CC(=O)N1Cc2ccccc2C(C)Cc2cc(Cl)ccc21 (configuration not stated)
Result: 103

Task: Provide one value: measured growth of COC1=CC(c2ccc[nH]2)=N/C1=C\c1[nH]c(C)c(C(=O)CCC(=O)Oc2ccc3c(c2)CCC2C3CC[C@]3(C)[C@@H](O)CC[C@@H]23)c1C (some centres not stated)
Result: 9.7

Task: Note down growth recorded for Cc1cc(Nc2nc(-c3ccc(F)cc3)nc3ccccc23)n[nH]1
Result: 57

Task: Please report growth for the following molecule: COc1ccc(/C=C\c2cc(OC)c(OC)c(OC)c2)c(NS(=O)(=O)c2ccc(C(C)(C)C)cc2)c1O
Result: 108

Task: Identify growth associated with the molecule COc1cc(-c2nc(-c3nc4ccccc4[nH]3)cc3c2[nH]c2ccccc23)cc(OC)c1OC
Result: 32.7

Task: Name the recorded growth of the item COc1cc(/C=C2\C=C(c3ccc(F)cc3)N(Cc3ccccc3)C2=O)cc(OC)c1OC in your answer.
Result: 90.7

Task: Entry COc1cc(-c2csc(NC(=O)c3cc(C(F)(F)F)cc(C(F)(F)F)c3)n2)cc(OC)c1OC needs its growth filled in; supply it.
Result: 3.36

Task: Indicate its recorded growth; the molecule in question is COc1ccc(/C=C/C(=O)c2cc(OC)c(OC)c(OC)c2)cc1OCc1cn(Cc2ccc(F)cc2)nn1
Result: 92.1

Task: Please look at this molecule and report its growth: CC(=O)Nc1nc(C(=O)N2N=C(C)/C(=C/c3ccccc3)C2=O)cs1
Result: 96.8

Task: Entry COc1cc(-c2n[nH]nc2-c2ccc3c(c2)OCCO3)cc(OC)c1OC needs its growth filled in; supply it.
Result: 69.7

Task: Give recorded growth. O=S(=O)(NCCCNc1cc(-c2cn(-c3ccccc3)nc2-c2cccc(O)c2)ccn1)c1cccc2ccccc12
Result: -1.89

Task: Please report the measured growth for Nc1ccccc1C#C/C=C\C#Cc1cccc(O)c1
Result: 51.6

Task: Return growth for the following molecule: CCN(CC)c1cc(/C=C/c2ccc(OC)c(OC)c2)nc2cc(F)c(F)cc12
Result: 4.61

Task: Query growth for COc1cccc(/C=C/C(=O)c2sc(Nc3ccc(O)cc3)nc2C)c1
Result: 95

Task: // Input: Cc1ccc(C(=O)c2sc3nc4c(cc3c2N)CCCC4)c(C)c1 . Output its growth only.
Result: 27

Task: Please look at this molecule and report its growth: COc1ccc(-c2nc3sccn3c2-c2ccnc(NCCNS(=O)(=O)c3ccc(C(F)(F)F)cc3)n2)cc1
Result: 8.25

Task: Given the molecule COc1ccc(/C=C/c2cc(N3CCOCC3)c3cc(F)c(F)cc3n2)cc1OC , write its reported growth.
Result: 49.3
